# protocol_notes: splicing luciferase reporter signal modulators, primary screen, spliceosome inhibition project, cell-based, HEK293, splice +/- reporter (AID 1101);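 note: HEK293 cells carrying a splicing-competent luciferase reporter gene; test concentration not given here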
# test_parameters: luminescence, 24 h, higher = more signal, called active from +8 up or from −8 down
The source made the active and inactive calls.
result_type: z-score

# example entries with known answers
C=CC[C@H](O)c1ccc(O)c(F)c1 : -0.339 (inactive)
COc1ccc([Si](C)(C)[C@H]2[C@H](CCO)O[C@@]3(C(=O)N(Cc4ccccc4)c4ccc(NC(=O)[C@H](C)O)cc43)[C@@H]2C)cc1 : -2.35 (inactive)
O=C1C2C=CC(C(O)c3ccccn3)N(Nc3ccc([N+](=O)[O-])cc3)C2C(=O)N1c1ccccc1 (stereo unspecified) : 0.981 (inactive)
COCCOC(=O)N1C(=O)[C@@]2(c3cc(C#CCNC(N)=O)ccc31)[C@H](C(=O)N1CCN(c3ncccn3)CC1)[C@H]1C(=O)O[C@H](c3ccccc3)[C@H](c3ccccc3)N1[C@@H]2c1ccc(O)cc1 : -0.428 (inactive)
C=CCOC(=O)[C@H]1[C@@H]2C(=O)O[C@@H](c3ccccc3)[C@@H](c3ccccc3)N2[C@@H](c2ccc(OCCOC(=O)[C@H]3C[C@H]4C(=O)NCC(=O)N4[C@H]3c3cccc(OCCO)c3)cc2)[C@]12C(=O)Nc1ccc(I)cc12 : 0.341 (inactive)

Data request: Return reported z-score; argument: `O=C(O)C1=CC[C@H]2C(=O)N(c3ccccc3)C(=O)[C@@H]12`
Data returned: 0.727 (inactive)
